Data origin: patent US6710078B2

System: FPTase (Homo sapiens, UniProt P49354+P49356)
Protocol Summary: in vitro FTase Inhibition Assay, H-Ras as substrate for farnesylation
Assay type: biochemical
Stated Conditions: H-Ras used as substrate for farnesylation
Experimental: Enzyme test procedure: FPTase inhibition in vitro assay was performed according to James, G. L., Brown, M. S., and Goldstein, J. L., Methods in Enzymology, 1995, 255, 38-46; and Garcia, M. A., et al., J. Biol. Chem., 1993, 268,18415-18420. […] Analysis of Results—Percent inhibition by test compounds is determined by the following: […]
Assay Readout: IC50 (nM)

Field: example entries. Status: answers known.
compound="CC1(c2ccccc2)OC(CC(SC[C@@H](O)[C@H](O)CS)c2ccccc2[N+](=O)[O-])=CC1=O (relative stereo) [Example 7]" assay_readout=IC50 observed_result=320
compound="CC1(c2ccccc2)OC(CC(SC[C@@H](O)[C@H](O)CS)c2ccsc2)=CC1=O (relative stereo) [Example 1]" assay_readout=IC50 observed_result=60
compound="CC1(c2ccccc2)OC(CC(SCCS)c2ccsc2)=CC1=O (stereo not drawn) [Example 13]" assay_readout=IC50 observed_result=180
compound="CC1(c2ccc(F)cc2)OC(CC(SC[C@H](O)[C@@H](O)CS)c2ccsc2)=CC1=O (stereo partly drawn) [Example 6]" assay_readout=IC50 observed_result=120

P = CC1(c2ccccc2)OC(CC(SC[C@H](O)[C@@H](O)CS)c2ccsc2)=CC1=O (stereo partly drawn) [Example 3]
Q = CC1(c2ccccc2)OC(CC(SCCCCCS)c2ccsc2)=CC1=O (stereo not drawn) [Example 12]
R = CC1(c2ccccc2)OC(CC(SCC(O)CO)c2ccsc2)=CC1=O (stereo not drawn) [Example 16]
S = CC(C1=CC(=O)C(C)(c2ccccc2)O1)C(SCC(O)C(O)CS)c1ccsc1 (stereo not drawn) [Example 8]
Arrange the 4 entries by IC50 so the values rise. Answer format: the labels, in the requested order. P, S, R, Q
(P: 180 nM, S: 500 nM, R: 5000 nM, Q: 8000 nM)

P = CC1(c2ccccc2)OC(CC(SCC(S)CO)c2ccsc2)=CC1=O (stereo not drawn) [Example 14]
Q = CC1(c2ccccc2)OC(CC(SCCO)c2ccsc2)=CC1=O (stereo not drawn) [Example 18]
R = CC1(c2ccccc2)OC(CC(SCCCS)c2ccsc2)=CC1=O (stereo not drawn) [Example 11]
S = CC1(c2ccccc2)OC(CC(SC[C@H](O)[C@H](O)CS)c2ccsc2)=CC1=O (relative stereo) [Example 2]
Rank the 4 compounds: largest IC50 first, smallest last. Your reply should list the labels following the order given in the request. P, Q, S, R
(P: 7200 nM, Q: 550 nM, S: 190 nM, R: 60 nM)

1 = CC1(c2ccccc2)OC(CC(SCCCO)c2ccsc2)=CC1=O (stereo not drawn) [Example 15]
2 = CC1(c2ccccc2)OC(CC(SCCCCO)c2ccsc2)=CC1=O (stereo not drawn) [Example 10]
Param pair: 1 , 2 . Output: the one whose IC50 is numerically greater. Answer by stating the label of the chosen item. 1
(1: 8300 nM, 2: 5500 nM)

###

System: FPTase (Homo sapiens, UniProt P49354+P49356)
Protocol Summary: in vitro FTase Inhibition Assay, K-Ras as substrate for farnesylation
Format: biochemical
Stated Conditions: K-Ras used as substrate for farnesylation
Procedure: Enzyme test procedure: FPTase inhibition in vitro assay was performed according to James, G. L., Brown, M. S., and Goldstein, J. L., Methods in Enzymology, 1995, 255, 38-46; and Garcia, M. A., et al., J. Biol. Chem., 1993, 268,18415-18420. […] Analysis of Results—Percent inhibition by test compounds is determined by the following: […]
Assay Readout: IC50 (nM)

molecule="CC1(c2ccccc2)OC(CC(SC[C@@H](O)[C@H](O)CS)c2ccsc2)=CC1=O (relative stereo)" unit_abbreviation=nM observed_result=100

I = CC(C1=CC(=O)C(C)(c2ccccc2)O1)C(SCC(O)C(O)CS)c1ccsc1 (stereo not shown)
II = CC1(c2ccccc2)OC(CC(SCCCCS)c2ccsc2)=CC1=O (stereo not shown)
For the pair I and II , which member has the lower IC50 number? Please identify the chosen entry by its label. I
